biological target: UniProt:P03372; assay: Estrogenic activity at ERalpha in human Ishikawa cells assessed as stimulation of alkaline phosphatase activity after 4 days by microplate scanning spectrophotometry; format: cell-based; conditions: read-out: EC50
Sequence (P03372 whole entry): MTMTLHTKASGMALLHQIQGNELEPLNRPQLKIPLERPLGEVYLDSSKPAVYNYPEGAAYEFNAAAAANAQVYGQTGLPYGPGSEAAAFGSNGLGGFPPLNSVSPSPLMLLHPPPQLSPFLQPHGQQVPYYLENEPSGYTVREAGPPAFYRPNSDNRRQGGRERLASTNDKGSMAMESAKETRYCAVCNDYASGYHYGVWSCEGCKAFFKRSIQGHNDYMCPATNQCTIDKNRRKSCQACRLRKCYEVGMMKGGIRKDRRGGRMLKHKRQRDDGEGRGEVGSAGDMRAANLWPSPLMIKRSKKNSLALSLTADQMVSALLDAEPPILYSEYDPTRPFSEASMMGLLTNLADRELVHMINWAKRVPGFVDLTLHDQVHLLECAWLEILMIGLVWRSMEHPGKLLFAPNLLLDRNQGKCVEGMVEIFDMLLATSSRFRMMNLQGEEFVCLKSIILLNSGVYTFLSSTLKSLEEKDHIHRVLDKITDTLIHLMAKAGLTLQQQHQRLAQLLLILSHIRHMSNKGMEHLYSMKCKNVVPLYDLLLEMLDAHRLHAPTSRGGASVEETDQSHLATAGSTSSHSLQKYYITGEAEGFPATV
recorded endpoint: EC50

>>> print(df.to_string())
                           smiles_structure  observed_result
0  C[C@]12CC[C@@H]3c4ccc(O)cc4CC[C@H]3[C@@H]1CC[C@@]2(O)C#Cc1ccc(CO)cc1            27 nM
1  C[C@]12CC[C@@H]3c4ccc(O)cc4CC[C@H]3[C@@H]1CC[C@@]2(O)C#Cc1ccc(N)cc1            10 nM

Here's the next entry for you.
Task item: Bench note: what EC50 did CC#C[C@]1(O)CC[C@H]2[C@@H]3CCc4cc(O)ccc4[C@H]3CC[C@@]21C show?
Reply: 0.028 nM
